# System: wheat powdery mildew (Blumeria graminis (DC.) Speer)
# procedureText: Whole-plant pot assay, control effect against wheat powdery mildew
# Assay type: in vivo
# settings: 40 ppm, spray on wheat leaves, inoculation 24 h after treatment, assessed 10 days after inoculation
control effect against wheat powdery mildew values, listed per item
Use % as the unit, but write only the number.

>>> df
                                entrysmiles  testresult
0  CCN(C)/C=N/c1cc(Cl)c(Oc2cc(C(C)(C)C)nn2C)cc1C       22.22
1  Cc1cc(Oc2cc(C(C)(C)C)nn2C)c(Cl)cc1/N=C/N1CCCC1           0
2  CCN(C)/C=N/c1cc(C)c(Oc2ccn(-c3ccc(Cl)cc3)n2)cc1C       59.26

Attention now turns to another entry.
input: Enter recorded control effect against wheat powdery mildew with wheat powdery mildew (Blumeria graminis (DC.) Speer) for CCN(C)/C=N/c1cc(C)c(Oc2cc(C(F)(F)F)nn2C)cc1C here.
output: 96.30
